Documented IC50 across a set of compounds
tested on: JAK1-dependent STAT6 phosphorylation in BEAS-2B human bronchial epithelial cells; assay: JAK1 pathway assay: IL-13 stimulated STAT6 phosphorylation in BEAS-2B cells; type: cell-based; conditions: Homo sapiens, BEAS-2B, BEAS-2B cells, IL-13 stimulation; read-out: IL-13 p-STAT6 BEAS-2B IC50
A number alone suffices; assume nM.

Examples from the recorded data:
-- ask I'd like to know its IC50. The compound in question is Cn1nnc(Cn2cc(NC(=O)c3cnn4cccnc34)c(-c3cc4c(cc3OC(F)F)NCCS4)n2)n1 [Example 128]
-- reply 7

-- ask Please do the same for CC1CNc2cc(OC(F)F)c(-c3nn(CCN)cc3NC(=O)c3cnn4cccnc34)cc2S1 (racemic) [Example 80] as well.
-- reply 13

-- ask Please do the same for N#CCn1cc(NC(=O)c2cnn3cccnc23)c(-c2cc3c(cc2OC(F)F)NCCO3)n1 [Example 144] as well.
-- reply 7

More entries:
-- ask I'd like to know its IC50. The compound in question is N#Cc1cc2cc(OC(F)F)c(-c3nn(CC(=O)N4CCC(CN5CCOCC5)CC4)cc3NC(=O)c3cnn4cccnc34)cc2s1 [Example 60]
-- reply 12

----------
biological target: isolated recombinant JAK2 kinase domain (Homo sapiens (Human), UniProt O60674); assay: JAK2 enzyme assay (Caliper LabChip, Ki); conditions: read-out: JAK2 Ki
Sequence (O60674 849-1124): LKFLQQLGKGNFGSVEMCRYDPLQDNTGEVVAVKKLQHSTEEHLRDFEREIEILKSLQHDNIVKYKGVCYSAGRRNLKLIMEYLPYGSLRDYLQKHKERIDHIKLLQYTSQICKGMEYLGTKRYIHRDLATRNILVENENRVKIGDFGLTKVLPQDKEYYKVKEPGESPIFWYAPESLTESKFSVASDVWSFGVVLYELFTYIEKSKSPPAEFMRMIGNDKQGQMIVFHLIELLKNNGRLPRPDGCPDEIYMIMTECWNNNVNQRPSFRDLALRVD
parameter_measured: pKi
Please treat pKi as minus the base-10 logarithm of the molar concentration.

Examples from the recorded data:
-- ask I'd like to know its pKi. The compound in question is COc1cc2cnsc2cc1-c1n[nH]cc1NC(=O)c1cnn2cccnc12
-- reply 9.96

-- ask Please do the same for CN(C)C(=O)CN1CCN(C(=O)Cn2cc(NC(=O)c3cnn4cccnc34)c(-c3cc4ccccc4cc3OC(F)F)n2)CC1 as well.
-- reply 9.03

-- ask Please do the same for N#CCn1cc(NC(=O)c2cnn3cccnc23)c(-c2cc3c(cc2OC(F)F)NCCO3)n1 as well.
-- reply 9.96

-- ask Please do the same for CN(C)C(=O)Cn1cc(NC(=O)c2cnn3cccnc23)c(-c2cc3c(cc2OC(F)F)NCCS3)n1 as well.
-- reply 9.92

-- ask Please do the same for CC1CSc2cc(-c3nn(CC(=O)N4CCCCC4)cc3NC(=O)c3cnn4cccnc34)c(OC(F)F)cc2N1 (single isomer, unassigned) [Example 108] as well.
-- reply 9.64

-- ask Please do the same for C[C@H]1CNc2cc(OC(F)F)c(-c3nn(CC(=O)N4CCC(CN5CCOCC5)CC4)cc3NC(=O)c3cnn4cccnc34)cc2S1 as well.
-- reply 9.62

-- ask Please do the same for CC1CNc2cc(OC(F)F)c(-c3nn(CC(=O)N4CCCCC4)cc3NC(=O)c3cnn4cccnc34)cc2S1 (single isomer, unassigned) [Example 101] as well.
-- reply 9.80

-- ask Please do the same for CC1CNc2cc(OC(F)F)c(-c3nn(CC(=O)N4CCCCC4)cc3NC(=O)c3cnn4cccnc34)cc2S1 (single isomer, unassigned) [Example 102] as well.
-- reply 9.72

More entries:
-- ask I'd like to know its pKi. The compound in question is COc1cc2c(cc1-c1n[nH]cc1NC(=O)c1cnn3cccnc13)CCC2
-- reply 9.47

-- ask Please do the same for O=C(Nc1cn(CC(=O)N2CCC(CN3CCOCC3)CC2)nc1-c1cc2ccccc2cc1OC(F)F)c1cnn2cccnc12 as well.
-- reply 9.01

-- ask Please do the same for CN1CCCC(n2cc(NC(=O)c3cnn4cccnc34)c(-c3cc4cn[nH]c4cc3OC(F)F)n2)C1 (racemic) as well.
-- reply 9.01

-- ask Please do the same for Cn1cc(NC(=O)c2cnn3cccnc23)c(-c2cc3c(cc2OC(F)F)NC(=O)CS3)n1 as well.
-- reply 10.15

-- ask Please do the same for CC1CSc2cc(-c3nn(CC(=O)N4CC=CCC4)cc3NC(=O)c3cnn4cccnc34)c(OC(F)F)cc2N1 (single isomer, unassigned) [Example 111] as well.
-- reply 9.68

-- ask Please do the same for COc1cc2ccsc2cc1-c1nn(CC(=O)N2CCC(N3CCOCC3)CC2)cc1NC(=O)c1cnn2cccnc12 as well.
-- reply 8.68

----------
system: JAK1-dependent STAT6 phosphorylation in BEAS-2B human bronchial epithelial cells; test: JAK1 pathway assay: IL-13 stimulated STAT6 phosphorylation in BEAS-2B cells; format: cell-based; details: Homo sapiens, BEAS-2B, BEAS-2B cells, IL-13 stimulation; read-out: IL-13 p-STAT6 BEAS-2B IC50
parameter_measured: pIC50
Please treat pIC50 as minus the base-10 logarithm of the molar concentration.

Examples from the recorded data:
-- ask Form entry - test system: JAK1-dependent STAT6 phosphorylation in BEAS-2B human bronchial epithelial cells; read-out: pIC50; compound: Cn1cc(NC(=O)c2cnn3cccnc23)c(-c2cc3sc(C(=O)N4CCNCC4)cc3cc2OC(F)F)n1 [Example 91]
-- reply 6.51

-- ask Please do the same for COc1cc2sncc2cc1-c1n[nH]cc1NC(=O)c1cnn2cccnc12 [Example 33] as well.
-- reply 7.68

-- ask Please do the same for CC(C)(C)OC(=O)N1CCN(C(=O)c2cc3cc(OC(F)F)c(-c4n[nH]cc4NC(=O)c4cnn5cccnc45)cc3s2)CC1 [Example 9] as well.
-- reply 6.82

-- ask Please do the same for CC1Sc2cc(-c3n[nH]cc3NC(=O)c3cnn4cccnc34)c(OC(F)F)cc2NC1=O (centres unmarked) [Example 39] as well.
-- reply 7.15

More entries:
-- ask Form entry - test system: JAK1-dependent STAT6 phosphorylation in BEAS-2B human bronchial epithelial cells; read-out: pIC50; compound: COc1cc2cc(C)sc2cc1-c1n[nH]cc1NC(=O)c1cnn2cccnc12 [Example 22]
-- reply 8.22

----------
target: isolated recombinant JAK1 kinase domain (Homo sapiens (Human), UniProt P23458); experiment: JAK1 enzyme assay (Caliper LabChip, Ki); type: biochemical
Sequence (P23458 875-1153): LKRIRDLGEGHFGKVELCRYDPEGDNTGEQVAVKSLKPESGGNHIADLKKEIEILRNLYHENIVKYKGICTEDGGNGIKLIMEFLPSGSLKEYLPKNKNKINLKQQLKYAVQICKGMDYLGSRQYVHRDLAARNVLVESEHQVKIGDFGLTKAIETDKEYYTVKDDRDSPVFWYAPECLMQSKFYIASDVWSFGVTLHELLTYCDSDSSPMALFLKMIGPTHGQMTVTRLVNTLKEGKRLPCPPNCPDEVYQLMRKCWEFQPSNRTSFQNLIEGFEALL
parameter_measured: Ki
The number alone won't do; follow it with the unit.

-- ask I'd like to know its Ki. The compound in question is N#CCn1cc(NC(=O)c2cnn3cccnc23)c(-c2cc3c(cc2OC(F)F)NCCS3)n1
-- reply 0.09 nM

-- ask Please do the same for CN(C)C(=O)Cn1cc(NC(=O)c2cnn3cccnc23)c(-c2cc3c(cc2OC(F)F)CCO3)n1 as well.
-- reply 0.22 nM

-- ask Please do the same for CN(CCC#N)C1CCN(C(=O)Cn2cc(NC(=O)c3cnn4cccnc34)c(-c3cc4ccccc4cc3OC(F)F)n2)CC1 as well.
-- reply 0.4 nM

-- ask Please do the same for CC1CNc2cc(OC(F)F)c(-c3n[nH]cc3NC(=O)c3cnn4cccnc34)cc2S1 (stereo not shown) [Example 94] as well.
-- reply 0.07 nM

----------
Documented pIC50 across a set of molecules
system: JAK1-dependent STAT6 phosphorylation in BEAS-2B human bronchial epithelial cells; assay: JAK1 pathway assay: IL-13 stimulated STAT6 phosphorylation in BEAS-2B cells; assay type: cell-based; settings: Homo sapiens, BEAS-2B, BEAS-2B cells, IL-13 stimulation; read-out: IL-13 p-STAT6 BEAS-2B IC50
Please treat pIC50 as minus the base-10 logarithm of the molar concentration.

Examples from the recorded data:
-- ask I'd like to know its pIC50. The molecule in question is CN(C)CCn1cc(NC(=O)c2cnn3cccnc23)c(-c2cc3c(cc2OC(F)F)NC(=O)CS3)n1
-- reply 7.85

-- ask Please do the same for COc1cc2cnccc2cc1-c1n[nH]cc1NC(=O)c1cnn2cccnc12 as well.
-- reply 7.07

-- ask Please do the same for CCN1CCN(C(=O)Cn2cc(NC(=O)c3cnn4cccnc34)c(-c3cc4ccccc4cc3OC(F)F)n2)CC1 as well.
-- reply 7.28

-- ask Please do the same for O=C(Nc1cn(C2COC2)nc1-c1cc2sncc2cc1OC(F)F)c1cnn2cccnc12 as well.
-- reply 8.00

Below: the item to evaluate.
-- ask I'd like to know its pIC50. The molecule in question is CN(CCC#N)C1CCN(C(=O)Cn2cc(NC(=O)c3cnn4cccnc34)c(-c3cc4ccccc4cc3OC(F)F)n2)CC1
-- reply 7.85

----------
target: isolated recombinant JAK1 kinase domain (Homo sapiens (Human)); test: JAK1 enzyme assay (Caliper LabChip, Ki); format: biochemical
We'd kindly ask you to apply these Ki classes: low bin = under 0.2 nM, mid bin = from 0.2 nM up to 0.3 nM, high bin = 0.3 nM and over

-- ask Category lookup for the compound C[C@@H]1COc2cc(-c3n[nH]cc3NC(=O)c3cnn4cccnc34)c(OC(F)F)cc2N1 [Example 43]
-- reply mid bin

-- ask Please do the same for COc1cc2ccsc2cc1-c1n[nH]cc1NC(=O)c1cnn2cccnc12 [Example 35] as well.
-- reply mid bin

-- ask Please do the same for O=C(Nc1c[nH]nc1-c1cc2sc(C(=O)N3CCNCC3)cc2cc1OC(F)F)c1cnn2cccnc12 [Example 10] as well.
-- reply high bin

-- ask Please do the same for N#CC1(CNC2CCN(C(=O)Cn3cc(NC(=O)c4cnn5cccnc45)c(-c4cc5sc(C(N)=O)cc5cc4OC(F)F)n3)CC2)CC1 [Example 64] as well.
-- reply mid bin

-- ask Please do the same for CC1CNc2cc(OC(F)F)c(-c3nn(CCN)cc3NC(=O)c3cnn4cccnc34)cc2S1 (racemic) [Example 80] as well.
-- reply low bin

-- ask Please do the same for CN(C)C(=O)Cn1cc(NC(=O)c2cnn3cccnc23)c(-c2cc3cnsc3cc2OC(F)F)n1 [Example 143] as well.
-- reply mid bin

-- ask Please do the same for CN1CCCC(n2cc(NC(=O)c3cnn4cccnc34)c(-c3cc4cn[nH]c4cc3OC(F)F)n2)C1 (racemic) [Example 74] as well.
-- reply high bin

-- ask Please do the same for Cn1cc(NC(=O)c2cnn3cccnc23)c(-c2cc3c(cc2OC(F)F)NCCO3)n1 [Example 89] as well.
-- reply low bin

More entries:
-- ask Category lookup for the compound O=C(Nc1cn(CC(=O)N2CC(F)(F)C2)nc1-c1cc2c(cc1OC(F)F)NCCO2)c1cnn2cccnc12 [Example 138]
-- reply mid bin

-- ask Please do the same for COc1cc2sc(C#N)cc2cc1-c1n[nH]cc1NC(=O)c1cnn2cccnc12 [Example 24] as well.
-- reply high bin

-- ask Please do the same for COc1cc2sccc2cc1-c1[nH]ncc1NC(=O)c1cnn2cccnc12 [Example 34] as well.
-- reply high bin

-- ask Please do the same for CC1Sc2cc(-c3n[nH]cc3NC(=O)c3cnn4cccnc34)c(OC(F)F)cc2NC1=O (single isomer, unassigned) [Example 95] as well.
-- reply low bin

-- ask Please do the same for Cn1cc(Cn2cc(NC(=O)c3cnn4cccnc34)c(-c3cc4c(cc3OC(F)F)NCCS4)n2)nn1 [Example 131] as well.
-- reply low bin

-- ask Please do the same for O=C(Nc1cn(C2CCOC2=O)nc1-c1cc2c(cc1OC(F)F)NCCS2)c1cnn2cccnc12 (single isomer, unassigned) [Example 142] as well.
-- reply low bin
